Record form. Attribute: %Inh. Fill in for each entry.
- System: CDK11
- Construct: gene CDK19
- STUDY_CONDITIONS: concentration: 1 μM, replicates: in singlicate; n = 1;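 also: KINOMEscan kinase panel screen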
Numbers only, in %.

Solved entries:
>  <COMPOUND>
Cc1ccc(NC(=O)c2ccnc(N3CCN(C)CC3)c2)cc1-c1ccc(C(=O)NCC2CC2)cc1

>  <RESULT_VALUE>
0

$$$$
>  <COMPOUND>
Cc1c(Cn2c(C)nn3c(=O)cc(N4CCOC(C)C4)nc23)cccc1C(F)(F)F (stereo not drawn)

>  <RESULT_VALUE>
0

$$$$
>  <COMPOUND>
CSc1ccc(-c2cc3ncnc(SCC(=O)O)c3s2)cc1

>  <RESULT_VALUE>
0

$$$$
>  <COMPOUND>
COc1cc2ncn(-c3cc(OCc4sccc4Cl)c(C(N)=O)s3)c2cc1OC

>  <RESULT_VALUE>
9

$$$$
>  <COMPOUND>
Cc1c2ccc(N(C)c3ccnc(Nc4cccc(S(N)(=O)=O)c4)n3)cc2nn1Cc1ccccc1.Cl.Cl

>  <RESULT_VALUE>
9

$$$$
>  <COMPOUND>
O=C(c1ccc(-c2cc(-c3c[nH]nc3-c3ccccn3)ccn2)cc1)N1CCOCC1

>  <RESULT_VALUE>
0

$$$$
>  <COMPOUND>
O=C(NCCCN1CCOCC1)c1cccc(Nc2nccc(Nc3ccc(Oc4ccccc4)cc3)n2)c1

>  <RESULT_VALUE>
15

$$$$
>  <COMPOUND>
COc1ccc(Nc2ncc(C#N)c(Nc3ccccc3C(N)=O)n2)cc1N1CCN(C)CC1.Cl

>  <RESULT_VALUE>
0

$$$$

For every record below, what is its %Inh?
1. O=C(NCCNc1ccnc(Nc2ccc(F)cc2)n1)c1cc2ccccc2s1
2. CC(=O)Nc1ccc(COc2ccc(Nc3ccnc4cc(-c5ccccn5)ccc34)cc2)cc1.Cl
3. NCC(NC(=O)c1cc(-c2cn[nH]c2)c(-c2ccnc3[nH]ccc23)s1)c1ccccc1.O=C(O)C(F)(F)F.O=C(O)C(F)(F)F (stereo not drawn)

Reply:
0
17
34

For every record below, what is its %Inh?
1. CN(C1=C(c2ccccc2)C(=O)NC1=O)c1ccccc1
2. O=C1NC(=O)C(N2CCc3ccccc32)=C1c1cccc(Cl)c1
3. Cl.Oc1cccc(Nc2ccnc3cc(-c4ccncc4)ccc23)c1
4. c1ccc(-c2cc(-c3c[nH]nc3-c3ccccn3)ccn2)cc1
5. O=c1cc(N2CCOCC2)nc2n(Cc3cccc(F)c3)ccn12
6. COc1ccc(Nc2nccc(N3CCC(NC(=O)Nc4cc(C)ccc4C)C3)n2)cc1 (stereo not drawn)
7. CCn1cnc2c(N)ncnc21

Reply:
8
0
4
11
0
70
0

----------
Record form. Attribute: %Inh. Fill in for each entry.
- System: CDKL5
- STUDY_CONDITIONS: concentration: 1 μM, replicates: in singlicate; n = 1
# answer = value followed by unit

Solved entries:
>  <STRUCTURE_SMILES_STRING>
Cc1nnc(-c2ccc(C)c(-c3ccc(C(=O)Nc4ccc(NS(C)(=O)=O)cc4)cc3)c2)o1

>  <RESULT_VALUE>
0%

$$$$
>  <STRUCTURE_SMILES_STRING>
CCn1cnc2c(N)ncnc21

>  <RESULT_VALUE>
0%

$$$$
>  <STRUCTURE_SMILES_STRING>
O=C1NC(=O)C(N2CCc3ccccc32)=C1c1cccc(Cl)c1

>  <RESULT_VALUE>
0%

$$$$
>  <STRUCTURE_SMILES_STRING>
Fc1ccc(-c2ncn(CCCN3CCOCC3)c2-c2cccnc2)cc1

>  <RESULT_VALUE>
0%

$$$$
>  <STRUCTURE_SMILES_STRING>
O=C1Cc2cc(Nc3nc(NCc4cccc(S(=O)(=O)C(F)(F)F)c4)ncc3C(F)(F)F)ccc2N1

>  <RESULT_VALUE>
18%

$$$$

For every record below, what is its %Inh?
1. CNc1ncnc2[nH]ncc12
2. N#Cc1ccc(-c2cc(-c3c[nH]nc3-c3ccccn3)ccn2)cc1
3. Nc1nccc(-c2c(-c3ccc(F)cc3)ncn2C2CCN(CC(F)(F)F)CC2)n1
4. O=c1cc(N2CCOCC2)nc2n(Cc3cccc(Cl)c3Cl)c(C3CC3)nn12

Reply:
1. 3%
2. 0%
3. 0%
4. 0%
